assay_target: T1, human LTBP3-proTGFβ1 complex (human, UniProt Q9NS15 866-1039)
T1 construct: range 866-1039; also called hLTBP3-proTGFβ1; hLTBP3
T1 sequence (Q9NS15 866-1039 limits assumed, chain 1 of 2): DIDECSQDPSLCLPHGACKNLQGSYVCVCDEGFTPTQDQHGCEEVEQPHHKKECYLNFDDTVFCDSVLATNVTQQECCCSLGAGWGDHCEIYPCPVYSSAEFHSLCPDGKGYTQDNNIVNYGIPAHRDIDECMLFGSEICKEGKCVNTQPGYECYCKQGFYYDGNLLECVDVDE
T1 sequence (chain, as listed by the source limits assumed, chain 2 of 2): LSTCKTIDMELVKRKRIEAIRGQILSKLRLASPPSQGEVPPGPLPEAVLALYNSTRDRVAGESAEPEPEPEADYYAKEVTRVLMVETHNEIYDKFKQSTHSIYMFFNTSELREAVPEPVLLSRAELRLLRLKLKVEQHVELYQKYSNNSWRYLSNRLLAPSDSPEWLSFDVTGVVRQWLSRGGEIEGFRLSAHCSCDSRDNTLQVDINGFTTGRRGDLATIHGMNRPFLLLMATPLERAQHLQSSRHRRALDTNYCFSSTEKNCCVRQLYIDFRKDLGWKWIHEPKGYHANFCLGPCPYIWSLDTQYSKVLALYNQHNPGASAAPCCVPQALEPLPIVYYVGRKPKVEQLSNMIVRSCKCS
experimental_details: MSD-SET, solution equilibrium titration
endpoint_label: Kd (nM)

[[record]]
binder = "Ab32 (antibody, IgG4, V domains shown) VH: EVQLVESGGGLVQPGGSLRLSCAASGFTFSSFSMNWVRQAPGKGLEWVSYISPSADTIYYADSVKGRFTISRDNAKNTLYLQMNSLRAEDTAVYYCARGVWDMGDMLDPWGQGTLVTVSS VL: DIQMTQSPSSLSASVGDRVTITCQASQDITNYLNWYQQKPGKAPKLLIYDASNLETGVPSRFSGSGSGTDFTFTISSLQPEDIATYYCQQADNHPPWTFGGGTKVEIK"
reading = 0.026

[[record]]
binder = "Ab33 (antibody, IgG4, V domains shown) VH: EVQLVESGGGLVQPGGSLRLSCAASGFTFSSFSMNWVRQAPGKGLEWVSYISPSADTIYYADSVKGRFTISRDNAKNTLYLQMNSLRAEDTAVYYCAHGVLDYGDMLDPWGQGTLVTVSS VL: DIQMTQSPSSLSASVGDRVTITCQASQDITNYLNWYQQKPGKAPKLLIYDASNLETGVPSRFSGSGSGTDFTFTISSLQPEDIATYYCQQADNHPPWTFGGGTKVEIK"
reading = 0.007

[[record]]
binder = "Ab19 (antibody, IgG4, V domains shown) VH: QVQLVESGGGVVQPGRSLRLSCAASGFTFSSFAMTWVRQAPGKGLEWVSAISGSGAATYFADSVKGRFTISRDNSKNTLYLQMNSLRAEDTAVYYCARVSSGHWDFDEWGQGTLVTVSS VL: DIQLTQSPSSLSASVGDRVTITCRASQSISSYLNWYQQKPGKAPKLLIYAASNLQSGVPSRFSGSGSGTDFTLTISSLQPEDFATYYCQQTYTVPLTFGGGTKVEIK"
reading = 2.7

